Target: human constitutive 20S proteasome cCP, T-L activity (β2) (Homo sapiens, UniProt Q99436)
outcome.measure: IC50 (µM)

# structure.smiles, outcome.measure, measured.result
measured = [
    ("CC(C)(C)c1ccc(S(=O)(=O)N2CCN(c3ccc(Cl)cc3[N+](=O)[O-])CC2)cc1", "IC50", 8.1),
    ("CC(C)Cc1ccc(S(=O)(=O)N2CCN(c3ccc([N+](=O)[O-])cc3)CC2)cc1", "IC50", 10.3),
]

====

Below are IC50 values recorded for human constitutive 20S proteasome cCP, PA activity (β1) (Homo sapiens, UniProt P28072).
outcome.measure: IC50 (µM)

# structure.smiles, IC50, µM
records = [
    ("O=[N+]([O-])c1ccc(N2CCN(S(=O)(=O)c3ccc(Cl)cc3)CC2)cc1SCc1ccco1", 7.4),
    ("O=C(COc1ccc2ccccc2c1)N1CCN(S(=O)(=O)c2ccc([N+](=O)[O-])cc2)CC1", 8.1),
]

[1] O=[N+]([O-])c1ccc(N2CCN(S(=O)(=O)c3ccc4ccccc4c3)CC2)cc1SCCN1CCOCC1
[2] CC(C)(C)c1ccc(S(=O)(=O)N2CCN(c3ccc([N+](=O)[O-])c(NCc4ccccn4)c3)CC2)cc1
Lookup: Of the pair 1 and 2 , name the member with the lesser recorded IC50. Choose, then provide that item's label.
Found: 2
(2: 13.9 µM, 1: 31.2 µM)
